- Test System: Epidermal growth factor receptor (Homo sapiens, UniProt P00533, L858R/T790M)
- Sequence (P00533 25-1210 T790M/L858R limits assumed): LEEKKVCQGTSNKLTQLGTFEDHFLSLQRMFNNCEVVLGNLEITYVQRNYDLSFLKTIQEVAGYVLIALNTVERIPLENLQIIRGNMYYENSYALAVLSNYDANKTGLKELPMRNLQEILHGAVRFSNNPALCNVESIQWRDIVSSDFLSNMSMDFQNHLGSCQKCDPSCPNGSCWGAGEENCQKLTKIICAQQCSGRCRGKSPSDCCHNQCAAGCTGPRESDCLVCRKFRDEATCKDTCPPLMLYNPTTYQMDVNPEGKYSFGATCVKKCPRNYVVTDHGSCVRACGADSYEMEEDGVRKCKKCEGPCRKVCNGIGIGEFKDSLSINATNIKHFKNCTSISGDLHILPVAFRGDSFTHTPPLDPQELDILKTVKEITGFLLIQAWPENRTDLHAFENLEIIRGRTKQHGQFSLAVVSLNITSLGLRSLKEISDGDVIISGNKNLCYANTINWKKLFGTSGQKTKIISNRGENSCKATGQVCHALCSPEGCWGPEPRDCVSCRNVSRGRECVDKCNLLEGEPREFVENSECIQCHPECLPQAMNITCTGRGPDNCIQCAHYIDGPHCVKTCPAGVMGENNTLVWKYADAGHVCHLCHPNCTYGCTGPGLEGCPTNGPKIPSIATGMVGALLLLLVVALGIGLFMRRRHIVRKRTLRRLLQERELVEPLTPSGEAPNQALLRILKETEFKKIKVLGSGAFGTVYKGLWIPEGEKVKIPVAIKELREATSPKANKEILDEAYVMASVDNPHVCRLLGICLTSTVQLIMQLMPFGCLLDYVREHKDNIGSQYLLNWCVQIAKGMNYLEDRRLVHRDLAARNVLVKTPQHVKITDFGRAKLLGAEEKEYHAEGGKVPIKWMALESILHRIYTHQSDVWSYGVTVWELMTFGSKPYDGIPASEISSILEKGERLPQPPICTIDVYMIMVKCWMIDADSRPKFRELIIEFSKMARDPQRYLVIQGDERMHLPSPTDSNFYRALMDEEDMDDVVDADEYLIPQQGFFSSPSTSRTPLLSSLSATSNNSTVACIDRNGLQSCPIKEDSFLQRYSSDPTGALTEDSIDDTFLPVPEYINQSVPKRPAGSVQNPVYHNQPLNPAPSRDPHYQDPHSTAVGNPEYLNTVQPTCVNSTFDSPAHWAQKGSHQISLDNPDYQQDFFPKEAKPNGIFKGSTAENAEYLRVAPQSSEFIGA
- Experimental Protocol: Inhibition of EGFR L858R/T790M mutant (unknown origin) by ELISA
Measured Endpoint: pIC50
# log scale: pIC50 equals minus log10 of the concentration in mol/L

Query: Report measured pIC50 on Epidermal growth factor receptor (Homo sapiens, UniProt P00533, L858R/T790M); entry: CCC(=O)Nc1cc(Nc2nccc(-c3cn(CCCO)c4ccccc34)n2)c(OC)cc1F
Response: 6.90

Query: Answer with pIC50 of COc1cc(N(C)CCN(C)C)ccc1Nc1nccc(-c2cn(CCCO)c3ccccc23)n1 measured for Epidermal growth factor receptor (Homo sapiens, UniProt P00533, L858R/T790M).
Response: 6.81

Query: Report measured pIC50 on Epidermal growth factor receptor (Homo sapiens, UniProt P00533, L858R/T790M); entry: CCC(=O)Nc1cc(Nc2nccc(-c3c[nH]c4c(CCO)cccc34)n2)c(OC)cc1F
Response: 6.68
